Could you please report measured MIC for the items listed next?
- System: Cryptococcus neoformans
- measurement protocol: Concentration that substantially inhibit the growth of Cryptococcus neoformans
- Type: functional
Give the value, in units of µM, as a plain number.

Query :: Give Cryptococcus neoformans MIC for CC[C@H](C)[C@H](NC(=O)[C@H](CCCN=C(N)N)NC(=O)[C@H](CCCCN)NC(=O)[C@H](Cc1c[nH]cn1)NC(=O)[C@@H](Cc1ccccc1)NC(=O)[C@@H](NC(=O)[C@@H](Cc1ccccc1)NC(=O)[C@@H](Cc1c[nH]c2ccccc12)NC(=O)[C@@H](N)CCCN=C(N)N)[C@@H](C)CC)C(N)=O
Result :: 2.39

Query :: Please state recorded MIC (tested on Cryptococcus neoformans) of CC[C@H](C)[C@H](NC(=O)[C@@H](Cc1ccccc1)NC(=O)[C@@H](Cc1c[nH]c2ccccc12)NC(=O)[C@@H](N)CCCN=C(N)N)C(=O)N[C@H](Cc1ccccc1)C(=O)N[C@@H](Cc1c[nH]cn1)C(=O)N[C@@H](CCCCN)C(=O)N[C@@H](CCCCN)C(=O)NCC(N)=O
Result :: 2.51

Query :: Query MIC on Cryptococcus neoformans for CC[C@H](C)[C@H](NC(=O)[C@@H](Cc1ccccc1)NC(=O)[C@@H](Cc1c[nH]c2ccccc12)NC(=O)[C@@H](N)CCCN=C(N)N)C(=O)N[C@H](Cc1ccccc1)C(=O)N[C@@H](Cc1c[nH]cn1)C(=O)N[C@@H](CCCCN)C(=O)N[C@@H](CCCN=C(N)N)C(=O)NCC(N)=O
Result :: 2.5

Query :: Query for Cryptococcus neoformans: what MIC does the record show for CC[C@H](C)[C@H](NC(=O)[C@@H](Cc1ccccc1)NC(=O)[C@@H](Cc1c[nH]c2ccccc12)NC(=O)[C@@H](N)CCCN=C(N)N)C(=O)N[C@H](Cc1ccccc1)C(=O)N[C@@H](Cc1c[nH]cn1)C(=O)N[C@@H](CCCCN)C(=O)N[C@@H](CCCN=C(N)N)C(=O)N[C@@H](CC(N)=O)C(N)=O ?
Result :: 2.39
